Entries annotated with measured TGI
- Tested on: BT-549 breast
- EXPERIMENT DESCRIPTION: NCI tumour cell line growth inhibition, 48 h
Where a SMILES comes first, the peptide text is derived from it. The star is where a group is joined. Boc = CC(C)(C)OC(=O)*
MEASUREMENT TYPE: TGI

# COMPOUND, MEASUREMENT TYPE, OBSERVED MEASUREMENT
rows = [
    ("O=C1NC(=S)N/C1=C\\c1ccc(Cl)cc1", "TGI", "> 100 µM"),
    ("O=C(CCc1ccc(O)c(O)c1)NCCc1ccccc1", "TGI", "> 89.1 µM"),
    ("CC(NC(=O)C1CCCN1C(=O)CNC(=O)OC(C)(C)C)C(=O)O (stereo not drawn) (Boc-Gly-Pro-Ala-OH; configuration not given here)", "TGI", "> 100 µM"),
    ("Cc1cccc2c(N)c3cccc(C(=O)NCC[N+](C)(C)Cc4ccc(S(C)(=O)=O)cc4)c3nc12", "TGI", "> 100 µM"),
    ("O=S(=O)(Nc1nccs1)c1ccc([As](=O)(O)O)cc1", "TGI", "> 100 µM"),
]
